Molecular target: Nuclear receptor subfamily 1 group D member 1 (Homo sapiens) (UniProt P20393)
Sequence (P20393 whole entry, looked up): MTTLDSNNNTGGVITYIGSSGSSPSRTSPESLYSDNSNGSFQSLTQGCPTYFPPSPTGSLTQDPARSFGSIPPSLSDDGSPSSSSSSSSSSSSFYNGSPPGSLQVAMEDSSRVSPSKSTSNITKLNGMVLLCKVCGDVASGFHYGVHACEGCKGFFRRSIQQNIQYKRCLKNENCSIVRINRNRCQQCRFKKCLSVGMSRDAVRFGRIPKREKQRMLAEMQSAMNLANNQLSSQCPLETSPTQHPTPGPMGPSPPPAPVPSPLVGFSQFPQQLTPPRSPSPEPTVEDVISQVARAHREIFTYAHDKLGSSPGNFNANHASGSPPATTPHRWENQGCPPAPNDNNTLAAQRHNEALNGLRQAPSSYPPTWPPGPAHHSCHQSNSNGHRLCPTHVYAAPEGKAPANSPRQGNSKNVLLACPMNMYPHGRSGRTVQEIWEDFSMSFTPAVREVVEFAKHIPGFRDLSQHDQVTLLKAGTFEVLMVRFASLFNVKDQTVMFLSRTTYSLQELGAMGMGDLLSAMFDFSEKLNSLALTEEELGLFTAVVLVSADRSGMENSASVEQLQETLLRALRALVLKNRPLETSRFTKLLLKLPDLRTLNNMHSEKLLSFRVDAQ
Experiment: modulators of Rev-erb alpha DNA binding, dose response, biochemical, FITC-DNA, fluorescence polarization (AID 1259321);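 active = half-maximal concentration for changing protein binding to DNA, from the fitted dose curve, below 10 micromolar; inactive = the rest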
Choose the fitting class; nothing outside active, inactive is accepted.

[[record]]
compound = "O=C(c1cccs1)N1C(=O)c2cccc3cccc1c23"
class = "active"

[[record]]
compound = "O=C(COC(=O)c1ccccc1SCC(=O)NC1CCCCC1)NC1CCCCC1"
class = "active"

[[record]]
compound = "Cc1ccc2nc(N3CCN(S(=O)(=O)c4ccc(C)c(Cl)c4)CC3)c(C#N)cc2c1"
class = "active"


Write down the call the test reported for this compound. Item: O=C(Cc1sc(-c2ccccc2)nc1-c1ccccc1)Nc1ccc(Cl)cc1
active

// outcome(item) with item = CCCCCC[n+]1ccccc1/C=C/c1ccc(N(C)C)cc1
active
